System: COLO 205 colon
EXPERIMENT DESCRIPTION: NCI-60 one-dose screen, 48 h (100 = growth as untreated, 0 = no growth, -100 = all killed)
TEST SETTINGS: 10 µM unless noted
This is part of a sample that, as a whole, favours compounds with a hit. Of some 83,000 tested, about 20% had one in any assay.
REPORTED ENDPOINT: growth (%)
The reply should contain only the number, in %.

Example molecules with recorded growth:
CCC(C)Nc1ccc(NC(C)CC)cc1 (stereo unspecified) ... 9.48
O=C(CCCCCCN1CC(=O)N2[C@@H](C3CCCCC3)c3[nH]c4ccccc4c3C[C@H]2C1=O)NO ... 62.9
Clc1nccc2c(-c3csc(-c4c[nH]c5ccccc45)n3)c[nH]c12 ... 33.3

Query block: What measured growth goes with `CCCCCCCCn1ccc2cc(NC(=O)Cn3cc(CN4CCOCC4)nn3)ccc21` ?
Result block: 109

Query block: Ok, now `C/C(=N\Nc1nc(C)cs1)c1cc2ccccc2o1`
Result block: 110

Query block: Ok, now `Cc1c2cc[nH]c(=O)c2c(C)c2c1[nH]c1ccc(OC(=O)c3ccccc3)cc12`
Result block: 30.4

###

System: RXF 393 renal
EXPERIMENT DESCRIPTION: NCI-60 one-dose screen, 48 h
TEST SETTINGS: 10 µM unless noted
This is part of a sample that, as a whole, favours compounds with a hit. Of some 83,000 tested, about 20% had one in any assay. Calls of active or inactive are those of the source. Rule for the calls: active = growth percent below 10; inactive = the rest.
Write down the outcome that applies. Available outcomes: TRUE = active, FALSE = inactive

Below are worked cases with known answers.
COc1ccc2cc(-c3cnc4nonc4n3)ccc2c1 ... FALSE
Nc1c(C(=O)Nc2ccncc2)sc2nc3c(cc12)CCCCC3 ... FALSE
NC(CSC(c1ccccc1)(c1ccccc1)c1ccc2c(c1)OCO2)C(=O)O (stereo not drawn) ... TRUE

Query block: I'd appreciate the recorded outcome for `COc1ccc(Nc2ncccc2NC(=O)c2cn(Cc3cccc(Oc4ccccc4)c3)nn2)cc1OC` from this test.
Result block: FALSE

Query block: Ok, now Cc1nc2sc(C(=O)Nc3cccc(Cl)c3)c(N)c2cc1C(O)c1ccccc1 (stereo not drawn)
Result block: FALSE

Query block: Ok, now `C/C(=C(/c1ccc(Cl)cc1)c1ccc(OCCCN(C)C)cc1)c1ccc(Cl)cc1`
Result block: FALSE

Query block: Ok, now `Cc1cc(N2CCCCC2)nc(N2CCN(CC(=O)Nc3ccc4c(ccn4Cc4ccccc4)c3)CC2)n1`
Result block: FALSE

Query block: Ok, now `COc1ccc(-c2nnc(SCC(=O)Nc3ccc(/C(C)=N\O)cc3)n2-c2ccccc2)cc1OC`
Result block: FALSE

Query block: Ok, now CCCCN1C(=O)/C(=c2\sc3n(c2=O)NC2C(N=3)N(CC)C(=O)N2CC)c2ccccc21 (stereo not drawn)
Result block: TRUE

Query block: Ok, now O=C(/C=C/C12c3ccccc3C(c3ccccc31)C1C(=O)NC(=O)C12)c1ccccn1 (stereo not drawn)
Result block: TRUE

Query block: Ok, now `N#C/C(=C\c1ccc(Br)cc1)c1cc2ccccc2[nH]1`
Result block: FALSE

Query block: Ok, now `Cc1ccc(-c2nc(C#N)c(S(=O)(=O)NCCO)o2)cc1`
Result block: FALSE

Query block: Ok, now `COc1cccc2c(N=NC(=O)c3ccc(S(N)(=O)=O)cc3)c(O)[nH]c12`
Result block: FALSE

Query block: Ok, now `O=C1NC(=O)c2c1c1c3ccccc3[nH]c1c1oc3cc(Br)ccc3c21`
Result block: FALSE

Values were extracted from PubChem BioAssay (NCI).
